kinase still bound, per cent of control by entry:
Biological target: STK32C (human) (UniProt Q86UX6)
Sequence (Q86UX6 whole entry, looked up): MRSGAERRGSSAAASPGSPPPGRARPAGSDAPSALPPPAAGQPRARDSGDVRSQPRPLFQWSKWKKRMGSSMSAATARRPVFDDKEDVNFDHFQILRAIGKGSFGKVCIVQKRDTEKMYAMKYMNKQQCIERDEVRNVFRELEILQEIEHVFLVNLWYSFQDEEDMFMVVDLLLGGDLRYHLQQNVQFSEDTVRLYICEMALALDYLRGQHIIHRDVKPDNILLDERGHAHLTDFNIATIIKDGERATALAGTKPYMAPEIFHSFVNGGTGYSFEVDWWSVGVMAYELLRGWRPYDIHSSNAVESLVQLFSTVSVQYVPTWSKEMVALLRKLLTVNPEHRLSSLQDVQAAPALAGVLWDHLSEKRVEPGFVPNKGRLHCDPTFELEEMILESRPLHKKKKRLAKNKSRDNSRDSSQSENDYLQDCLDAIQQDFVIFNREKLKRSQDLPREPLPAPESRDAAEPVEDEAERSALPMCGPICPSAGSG
Experiment: KINOMEscan competition binding
Details: compound 10.0 µM
Parameter: kinase still bound, per cent of control

                            chemical_smiles  result
0  CNC(=O)Nc1ccc(-c2nc(N3CC4CCC(C3)O4)c3cnn(C4CCC5(CC4)OCCO5)c3n2)cc1     90%
1  CC(=O)c1c(C)c2cnc(Nc3ccc(N4CCNCC4)cn3)nc2n(C2CCCC2)c1=O     94%
2         COc1cc2ncnc(Nc3cccc(Cl)c3)c2cc1OC    100%
3  Cc1cn(-c2cc(C(=O)Nc3ccc(C)c(NC(=O)c4ccno4)c3)cc(C(F)(F)F)c2)cn1    100%
